Target entity: COX-2 (UniProt P35354)
Assay protocol: Assay for COX-2 activity (PGE2 ELISA)
Conditions: read-out: COX-2 IC50; 10–20 minutes pre-incubation, reaction stopped after ten minutes, pH 8.0
Observable: IC50 (nM)

Consider the following illustrative entries.
{"columns": ["Compound", "Observable", "Readout unit", "Observed result"],
 "data": [
  ["O=C(O)C1=Cc2cc(SC(F)(F)F)ccc2OC1C(F)(F)F (stereo not drawn)", "IC50", "nM", 200],
  ["CS(=O)(=O)c1ccc2c(c1)C=C(C(=O)O)C(C(F)(F)F)O2 (stereo not drawn)", "IC50", "nM", 29000]
]}

[I] O=C(O)C1=Cc2cc(C(=O)c3ccc(O)cc3)ccc2OC1C(F)(F)F (stereo not drawn)
[II] COc1ccc(Sc2cc3c(cc2Cl)C=C(C(=O)O)C(C(F)(F)F)O3)cc1 (stereo not drawn)
Problem: For the two items I and II , which reports the higher IC50 value? Please reply using the label of the selected record.
Result: II
